experiment: Pharmacokinetics in male CD-1 mice (i.v. and p.o.); type: in vivo; conditions: male, mouse, po; CD-1 mice, 10 mg/Kg p.o., plasma
assay_readout: AUC(0-inf) (ng·h/mL)
# value in ng·h/mL; strip the unit string

## Task Which value of AUC(0-inf) has been reported for "Cc1cc(SCc2sc(-c3ccc(C(F)(F)F)cc3)nc2C)ccc1OCC(=O)O" in the records?
## Result 31000

## Task Which value of AUC(0-inf) has been reported for "O=C(O)CCCCCOc1ccccc1CN(C(=O)c1ccc(-c2ccco2)cc1)C1CC1" in the records?
## Result 187

====

Biological target: Human PPARδ LBD (Homo sapiens, UniProt Q03181)
Construct: (PPARδ amino acid 128 to C-terminus); expressed in transfected cells; host or cells: CV-1 cells
Sequence (Q03181 128-441 limits assumed): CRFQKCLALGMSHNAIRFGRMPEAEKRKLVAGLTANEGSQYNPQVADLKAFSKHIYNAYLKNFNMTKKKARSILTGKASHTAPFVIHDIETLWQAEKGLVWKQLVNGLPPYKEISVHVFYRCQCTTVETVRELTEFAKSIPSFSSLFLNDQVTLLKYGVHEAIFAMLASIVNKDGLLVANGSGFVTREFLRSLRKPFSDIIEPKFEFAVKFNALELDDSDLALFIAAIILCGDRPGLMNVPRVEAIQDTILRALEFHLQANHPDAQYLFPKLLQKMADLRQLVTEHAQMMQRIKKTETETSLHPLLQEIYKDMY
Test: PPARδ activity screen (GAL4-PPARδ LBD luciferase transactivation in CV-1 cells)
Assay type: cell-based
Details: EC50 nM, Table 1; CV-1 cells, GAL4-PPARδ LBD luciferase reporter, compound 24 h
Method: Cell Culture and Transfection: CV-1 cells were grown in DMEM+10% charcoal stripped FCS. Cells were seeded into 384-well plates the day before transfection to give a confluency of 50-80% at transfection. […] Luciferase assay: Medium including test compound was aspirated and washed with PBS. […] Light emission was quantified by counting on a Perkin Elmer Envision reader. […] Beta-galactosidase assays were performed in the microwell plates using a kit from Promega and read in a Perkin Elmer Envision reader. […]
Give measured EC50 for each item. Keep answers brief.
# value in nM; strip the unit string

## Task Which value of EC50 has been reported for "Cc1cc(C)cc(-c2ccc(C(=O)N(Cc3ccccc3OCCCCCC(=O)O)C3CC3)cc2)c1" in the records?
## Result 1760

## Task Which value of EC50 has been reported for CCC(C)N(Cc1ccccc1OCCCCCC(=O)O)C(=O)c1ccc(-c2cccs2)cc1 (stereo not shown) in the records?
## Result 2100

## Task Which value of EC50 has been reported for "O=C(O)CCCCCOc1ccccc1CN(C(=O)c1ccc(-c2cccs2)cc1)C1CC1" in the records?
## Result 1800

## Task Which value of EC50 has been reported for CCC(C)N(Cc1ccccc1OCCCCCC(=O)O)C(=O)c1ccc(-c2cccnc2)cc1 (stereo not shown) in the records?
## Result 5140

## Task Which value of EC50 has been reported for CCC(C)N(Cc1ccccc1OCCCCCC(=O)O)C(=O)c1ccc(-c2ccoc2)cc1 (stereo not shown) in the records?
## Result 290

## Task Which value of EC50 has been reported for "COc1cccc(-c2ccc(C(=O)N(Cc3ccccc3OCCCCCC(=O)O)C3CC3)cc2)c1" in the records?
## Result 301

## Task Which value of EC50 has been reported for "CCCc1ccc(-c2ccc(C(=O)N(Cc3ccccc3OCCCCCC(=O)O)C3CC3)cc2)cc1" in the records?
## Result 1340

## Task Which value of EC50 has been reported for CCC(C)N(Cc1ccccc1OCCCCCC(=O)O)C(=O)c1ccc(-c2ccsc2)cc1 (stereo not shown) in the records?
## Result 179

## Task Which value of EC50 has been reported for "O=C(O)CCCCCOc1ccccc1CN(C(=O)c1ccc(-c2ccccc2F)cc1)C1CC1" in the records?
## Result 597

## Task Which value of EC50 has been reported for "Cc1ccc(C)c(-c2ccc(C(=O)N(Cc3ccccc3OCCCCCC(=O)O)C3CC3)cc2)c1" in the records?
## Result 1150

## Task Which value of EC50 has been reported for "COc1ccc(-c2ccc(C(=O)N(Cc3ccccc3OCCCCCC(=O)O)C3CC3)cc2)cc1" in the records?
## Result 439

## Task Which value of EC50 has been reported for "O=C(O)CCCCCOc1ccccc1CN(C(=O)c1ccc(-c2cccc(C(F)(F)F)c2)cc1)C1CC1" in the records?
## Result 1150

## Task Which value of EC50 has been reported for CCC(C)N(Cc1ccccc1OCCCCCC(=O)O)C(=O)c1ccc(Br)cc1 (stereo not shown) in the records?
## Result 611

## Task Which value of EC50 has been reported for "Cc1ccccc1-c1ccc(C(=O)N(Cc2ccccc2OCCCCCC(=O)O)C2CC2)cc1" in the records?
## Result 1190

## Task Which value of EC50 has been reported for "Cc1cccc(-c2ccc(C(=O)N(Cc3ccccc3OCCCCCC(=O)O)C3CC3)cc2)c1C" in the records?
## Result 1300

## Task Which value of EC50 has been reported for CCC(C)N(Cc1ccccc1OCCCCCC(=O)O)C(=O)c1ccc(-c2ccccc2)cc1 (stereo not shown) in the records?
## Result 954
